Values compiled from PubChem BioAssay (Tox21).

assayProtocol: qHTS assay to identify small molecule agonists of the RXR signaling pathway - cell viability counter screen (AID 1159529); note: nearly all actives have a fitted effect of over 50% in size
conditionParameters: RXR-alpha-bla HEK293T viability, CellTiter-Glo, 16 h; series mostly up to 76.8 µM
Inconclusive results are not listed. Active and inactive are the calls of the source. Calls come from the whole dose curve; as a rule, active = well fitted cell-killing curve with a large enough effect in the repeat runs; inconclusive = weak or mixed curves, or effect the other way; inactive = no such curve, though single readings can be large or run the other way.
Form entry, call: pick from TRUE = active, FALSE = inactive

Example entries begin here.
| compound | category |
| --- | --- |
| CC1CCC(C(C)C)C(OC(=O)c2ccccc2N)C1 (stereo unspecified) | TRUE |
| N#CCCSCCC#N | FALSE |
| Nc1c(Oc2ccccc2)cc(O)c2c1C(=O)c1ccccc1C2=O | FALSE |
| CC(Cc1ccc(C(C)(C)C)cc1)CN1C[C@@H](C)O[C@@H](C)C1 (stereo partly specified) | FALSE |

Identify the outcome logged in this assay for the compound shown: Cl/C=C\CCl FALSE

Entry NNC(=O)c1ccccc1 : call = ? FALSE

Dear colleague, could you share the recorded outcome for C[C@@H]1CC[C@@]2(OC1)O[C@H]1[C@@H](O)[C@H]3[C@@H]4CC[C@H]5C[C@@H](O[C@@H]6O[C@H](CO)[C@H](O[C@@H]7O[C@H](CO)[C@@H](O)[C@H](O[C@@H]8OC[C@@H](O)[C@H](O)[C@H]8O)[C@H]7O[C@@H]7O[C@H](CO)[C@@H](O)[C@H](O[C@@H]8O[C@H](CO)[C@@H](O)[C@H](O)[C@H]8O)[C@H]7O)[C@H](O)[C@H]6O)[C@H](O)C[C@]5(C)[C@H]4CC[C@]3(C)[C@H]1[C@@H]2C when you have a moment? TRUE

Tell me the recorded outcome of this test for N#CCc1ccc(Cl)cc1 . FALSE

For COC(=O)N(C(=O)N1COC2(C(=O)OC)Cc3cc(Cl)ccc3C2=N1)c1ccc(OC(F)(F)F)cc1 (stereo unspecified) , what call appears in the results of this test? FALSE

Query: recorded result category for CCC(C)c1cc(C(C)(C)C)cc(-n2nc3ccccc3n2)c1O (stereo unspecified) in this test FALSE

For this compound, state the assay outcome: OC(Cc1ccccc1Cl)(Cn1cncn1)C1(Cl)CC1 (stereo unspecified) FALSE

Please state the recorded outcome for this compound: CCCCCCCCCCCCCCCCCCn1cc[n+](C)c1 TRUE

How was COc1ccc(OC)c(CC(C)N)c1 (stereo unspecified) classified in this test? FALSE

Recorded call for CCCN(CC)CC1COC2(CCC(C(C)(C)C)CC2)O1 (stereo unspecified) ? FALSE

What is the recorded call for this compound in the test? CN(CCCC(O)c1cccnc1)N=O (stereo unspecified) FALSE

What call does the record list for Clc1ccc(-c2ccccc2)cc1 ? FALSE

What did this assay record as the result for CC(=O)[O-].CC(=O)[O-].[Hg+2] ? TRUE

What did this assay record as the result for COP(N)(=S)OC ? FALSE

Call for entry Cc1cc(C(C)(C)c2cc(C)c(O)c(C)c2)cc(C)c1O : TRUE

Call for entry O=C1C=CC(=O)c2ccccc21 : TRUE

// param item: NC(=O)CCl ; yields the recorded call FALSE

Status in this test for Oc1ccc(C2(c3ccc(O)cc3)c3ccccc3-c3ccccc32)cc1 ? TRUE

Hey, what did the test say about c1ccc2cc3c(cc2c1)-c1cccc2cccc-3c12 ? FALSE

State the result this test recorded for CCCSP(=O)(OCC)SCCC . FALSE

Test call for this compound, please: CCCCCCCCCCBr FALSE

What call does the record list for Oc1ccccc1Br ? FALSE
